Test system: Vero cells
Type: cell-based
Details: 72 h
attribute-measured: Vero cell CC50 (µg/mL)
Lab book: enter the figure in µg/mL, no units written.

In [3]: df
Out[3]:
                                   molecule  result_number
0  CN(C)c1nnc(-c2ccc(NC(=O)c3ccc([N+](=O)[O-])o3)cc2)o1 [JSF-3157]           0.78

Here's the next entry for you.
Input: For the molecule O=C(Nc1cccc(N2CCOC2=O)c1)c1ccc([N+](=O)[O-])o1 [JSF-3153] , what Vero cell CC50 is on record?
Output: 1.6

---

Below, each entry is listed with its recorded CC50.
Test system: Vero cells
Assay type: cell-based
Conditions: read-out: Vero cell CC50; 72 h

These solved cases illustrate the format of a correct answer.
>>> print(df.to_string())
                                   compound  attribute_measured    result
0  CN(C)c1nnc(-c2ccc(NC(=O)c3ccc([N+](=O)[O-])o3)cc2)o1 [JSF-3157]                CC50      2 µM
1  CC(=O)N1CCN(c2cc3c(cc2F)c(=O)c(C(=O)N2CCCc4ccccc42)cn3C2CC2)CC1 [JSF-3145]                CC50  > 100 µM
2  O=C(Nc1cccc(N2CCOC2=O)c1)c1ccc([N+](=O)[O-])o1 [JSF-3153]                CC50      5 µM

Okay, next one:
Input: Please report the recorded CC50 for O=C(Nc1cc(Cl)cc2cccnc12)c1ccc([N+](=O)[O-])s1 [JSF-3151] .
Output: > 150 µM
